Experiment: Whole plasma pharmacokinetics of benznidazole in mice (HPLC)
Format: in vivo, mouse
Conditions: mouse, plasma; mice, summary value; read-out: elimination t1/2
observation-type: half-life (h)

{"columns": ["compound", "result-unit", "test-result"],
 "data": [
  ["O=C(Cn1ccnc1[N+](=O)[O-])NCc1ccccc1 [benznidazole, N-benzyl-(2-nitroimidazolyl) acetamide]", "h", 1.5]
]}

* * *

Experiment: Penetration into brain and peripheral nerve in dogs
Type: in vivo, dog
Conditions: dog, peripheral nerve/plasma, po, 25 mg kg-1, dog G, 25 mg kg-1 oral, 2 h; read-out: peripheral nerve/plasma ratio
observation-type: Kp at 2 h

{"columns": ["compound", "observation-type", "test-result"],
 "data": [
  ["O=C(Cn1ccnc1[N+](=O)[O-])NCc1ccccc1 [benznidazole, N-benzyl-(2-nitroimidazolyl) acetamide]", "Kp at 2 h", 0.9]
]}

* * *

Test system: plasma proteins
Test: In vivo plasma protein binding in dogs (plasma ultrafiltrate)
Conditions: collie crossbred, dog, plasma, iv, 5 mg kg-1, dog C, 5 mg kg-1 i.v.; full time course; read-out: protein binding (mean+s.e., n=8) (converted)
observation-type: fraction unbound

{"columns": ["compound", "observation-type", "test-result"],
 "data": [
  ["O=C(Cn1ccnc1[N+](=O)[O-])NCc1ccccc1 [benznidazole, N-benzyl-(2-nitroimidazolyl) acetamide]", "fraction unbound", 0.28]
]}

* * *

Test: Whole plasma pharmacokinetics in sheep (HPLC)
Format: in vivo
Conditions: male, Clun Forest/Border Leicester cross, sheep, plasma, iv, 4 mg/kg, sheep 2, 4 mg kg-1 i.v.; read-out: elimination t1/2 (95% confidence limits) (converted)
observation-type: half-life (h)

{"columns": ["molecule", "test-result"],
 "data": [
  ["O=C(Cn1ccnc1[N+](=O)[O-])NCc1ccccc1 [benznidazole, N-benzyl-(2-nitroimidazolyl) acetamide]", 3.8]
]}

* * *

Experiment: Whole plasma pharmacokinetics of benznidazole in mice (HPLC)
Format: in vivo, mouse
Details: male, mouse, plasma, iv; BALB/c mice, 65 mg kg-1 i.v. in dimethyl sulphoxide; read-out: elimination half-life (95% confidence limits)
observation-type: half-life (h)

{"columns": ["compound", "test-result"],
 "data": [
  ["O=C(Cn1ccnc1[N+](=O)[O-])NCc1ccccc1 [benznidazole, N-benzyl-(2-nitroimidazolyl) acetamide]", 1.95]
]}

* * *

Tested on: plasma proteins
Experiment: In vivo plasma protein binding in dogs (plasma ultrafiltrate)
Details: collie crossbred, dog, plasma, iv, 5 mg kg-1, dog D, 5 mg kg-1 i.v.; full time course; read-out: protein binding (mean+s.e., n=8) (converted)
observation-type: fraction unbound

{"columns": ["molecule", "test-result"],
 "data": [
  ["O=C(Cn1ccnc1[N+](=O)[O-])NCc1ccccc1 [benznidazole, N-benzyl-(2-nitroimidazolyl) acetamide]", 0.26]
]}

* * *

Assay: Whole plasma pharmacokinetics in dogs (HPLC)
Assay type: in vivo, dog
Conditions: collie crossbred, dog, plasma ultrafiltrate (unbound drug), iv, 5 mg/kg, dog D, 5 mg kg-1 i.v.; read-out: volume of distribution (Vd area), unbound drug data
observation-type: Vd (L/kg)

{"columns": ["compound", "observation-type", "test-result"],
 "data": [
  ["O=C(Cn1ccnc1[N+](=O)[O-])NCc1ccccc1 [benznidazole, N-benzyl-(2-nitroimidazolyl) acetamide]", "Vd", 1.87]
]}

* * *

Test: Whole plasma pharmacokinetics in dogs (HPLC)
Assay type: in vivo, dog
Conditions: collie crossbred, dog, plasma, iv, 5 mg/kg, dog C, 5 mg kg-1 i.v.
observation-type: clearance (mL/min/kg)

{"columns": ["compound", "observation-type", "result-unit", "test-result"],
 "data": [
  ["O=C(Cn1ccnc1[N+](=O)[O-])NCc1ccccc1 [benznidazole, N-benzyl-(2-nitroimidazolyl) acetamide]", "clearance", "mL/min/kg", 0.793]
]}

* * *

Assay: Tissue penetration in dogs bearing spontaneous neoplasms
Format: in vivo, dog
Details: dog, tumour (spontaneous neoplastic tissue), po, neoplastic tissues, 12.5 (one dog 25) mg kg-1 oral, 1.67-4.5 h; read-out: tissue/whole plasma ratios, range
observation-type: Kp

{"columns": ["molecule", "observation-type", "test-result"],
 "data": [
  ["O=C(Cn1ccnc1[N+](=O)[O-])NCc1ccccc1 [benznidazole, N-benzyl-(2-nitroimidazolyl) acetamide]", "Kp", "0.14 to 0.7"]
]}

* * *

Test system: plasma proteins
Test: Plasma protein binding in sheep (plasma ultrafiltrate)
Assay type: in vivo
Conditions: male, Clun Forest/Border Leicester cross, plasma, iv; sheep 2, 4 mg kg-1 i.v.; read-out: protein binding (s.e., n=6) (converted)

{"columns": ["compound", "fraction unbound"],
 "data": [
  ["O=C(Cn1ccnc1[N+](=O)[O-])NCc1ccccc1 [benznidazole, N-benzyl-(2-nitroimidazolyl) acetamide]", 0.58]
]}

* * *

Experiment: Whole plasma pharmacokinetics in dogs (HPLC)
Format: in vivo, dog
Conditions: collie crossbred, dog, plasma, iv, 5 mg/kg, dog D, 5 mg kg-1 i.v.; 95% confidence limits 9.2-11.4; read-out: elimination half-life t1/2β (converted)

{"columns": ["compound", "half-life (h)"],
 "data": [
  ["O=C(Cn1ccnc1[N+](=O)[O-])NCc1ccccc1 [benznidazole, N-benzyl-(2-nitroimidazolyl) acetamide]", 10.2]
]}

* * *

Assay: Penetration into EMT6 and KHT mouse tumours
Assay type: in vivo
Settings: male, mouse, tumour (EMT6, intradermal, intraperitoneal); EMT6 i.d. flank, BALB/c, Exp 1 (a): 650 mg kg-1 i.p. single dose (arachis oil), 45-135 min, n=16; read-out: tumour/whole plasma ratio (% ± s.e.)
observation-type: Kp

{"columns": ["compound", "test-result"],
 "data": [
  ["O=C(Cn1ccnc1[N+](=O)[O-])NCc1ccccc1 [benznidazole, N-benzyl-(2-nitroimidazolyl) acetamide]", 0.59]
]}

* * *

Assay: Whole plasma pharmacokinetics in dogs (HPLC)
Type: in vivo, dog
Conditions: beagle, dog, plasma, po, 50 mg/kg, dog E, 50 mg kg-1 oral
observation-type: AUC(0-inf) (µg·h/mL)

{"columns": ["compound", "test-result"],
 "data": [
  ["O=C(Cn1ccnc1[N+](=O)[O-])NCc1ccccc1 [benznidazole, N-benzyl-(2-nitroimidazolyl) acetamide]", 760]
]}

* * *

Assay: Whole plasma pharmacokinetics in dogs (HPLC)
Format: in vivo, dog
Settings: collie crossbred, dog, plasma, po, 12.5 mg/kg, dog C, 12.5 mg kg-1 oral; 95% confidence limits 9.7-13.3; read-out: elimination half-life t1/2β (converted)

{"columns": ["compound", "result-unit", "half-life"],
 "data": [
  ["O=C(Cn1ccnc1[N+](=O)[O-])NCc1ccccc1 [benznidazole, N-benzyl-(2-nitroimidazolyl) acetamide]", "h", 11.2]
]}

* * *

Assay: Penetration into brain and peripheral nerve in dogs
Format: in vivo, dog
Conditions: dog, brain/plasma, po, 25 mg kg-1, dog H, 25 mg kg-1 oral, 3 h; read-out: brain/plasma ratio
Description: Br. J. Cancer (1984), 50, 291-303 Preclinical pharmacokinetics of benznidazole P. Workman', R.A.S. White2, M.I. Walton', L.N. Owen2* & P.R. Twentyman' 1MRC Clinical Oncology and Radiotherapeutics Unit, MRC Centre, Hills Road, Cambridge CB2 2QH, and 2Department of Clinical Veterinary Medicine, University of Cambridge, Madingley Road, Cambridge CB3 OES, UK. […]

{"columns": ["molecule", "Kp at 3 h"],
 "data": [
  ["O=C(Cn1ccnc1[N+](=O)[O-])NCc1ccccc1 [benznidazole, N-benzyl-(2-nitroimidazolyl) acetamide]", 0.45]
]}

* * *

Assay: Penetration into mouse liver
Assay type: in vivo
Settings: male, BALB/c, mouse, liver, ip, 78 mg kg-1, BALB/c, 78 mg kg-1 i.p., 0.5-6 h; read-out: liver/whole plasma ratio, overall mean

{"columns": ["compound", "Kp"],
 "data": [
  ["O=C(Cn1ccnc1[N+](=O)[O-])NCc1ccccc1 [benznidazole, N-benzyl-(2-nitroimidazolyl) acetamide]", 0.42]
]}

* * *

Experiment: Whole plasma pharmacokinetics in dogs (HPLC)
Type: in vivo, dog
Details: collie crossbred, dog, plasma, dogs (large crossbred), summary value; read-out: elimination t1/2
observation-type: half-life

{"columns": ["compound", "observation-type", "test-result"],
 "data": [
  ["O=C(Cn1ccnc1[N+](=O)[O-])NCc1ccccc1 [benznidazole, N-benzyl-(2-nitroimidazolyl) acetamide]", "half-life", "9 to 11 h"]
]}

* * *

Test: Penetration into mouse liver
Type: in vivo
Settings: both sexes, C3H/He, mouse, liver, ip, 78 mg kg-1, C3H/He, 78 mg kg-1 i.p., 0.5-6 h, n=29; read-out: liver/whole plasma ratio, overall mean

{"columns": ["compound", "Kp"],
 "data": [
  ["O=C(Cn1ccnc1[N+](=O)[O-])NCc1ccccc1 [benznidazole, N-benzyl-(2-nitroimidazolyl) acetamide]", 0.71]
]}

* * *

Assay: Whole plasma pharmacokinetics in dogs (HPLC)
Format: in vivo, dog
Conditions: collie crossbred, dog, plasma ultrafiltrate (unbound drug), iv, 5 mg/kg, dog C, 5 mg kg-1 i.v.; read-out: volume of distribution (Vd area), unbound drug data
observation-type: Vd (L/kg)

{"columns": ["compound", "result-unit", "test-result"],
 "data": [
  ["O=C(Cn1ccnc1[N+](=O)[O-])NCc1ccccc1 [benznidazole, N-benzyl-(2-nitroimidazolyl) acetamide]", "L/kg", 2.05]
]}
